Listed next: entries and their corresponding RLU.
# SUBJECT OF TEST: T1, human CD71 extracellular domain (human, UniProt P02786 89-760, biotinylated)
# T1 construct: extracellular domain; also called hCD71; huCD71 ECD
# ASSAY EXPLANATION: solution ELISA screen (luminescence)
Express the reported value numerically, then name its unit.

Guide cases for RLU, answers given:
# BINDER, RLU
data = [
    ("SEQ ID NO 269 (designed binder, not shown: small tags and cut ends) MLPAPKNLVVSRVTEDSARLSWTAPDAAFDSFYIAYAEPRPDGEAIWLDVPGSERSYDLTGLKPGTEYSVLIHGVKGGLLSSPLDAYFTT", "812000 RLU"),
    ("SEQ ID NO 260 (designed binder, not shown: small tags and cut ends) MLPAPKNLVVSRVTEDSARLSWTAPDAAFDSFYIAYAEPRPDGEAIHLRVPGSERSYDLTGLKPGTEYNVTIQGVKGGFPSMPLSAIFTT", "4.88e+06 RLU"),
    ("SEQ ID NO 210 (designed binder, not shown: small tags and cut ends) MLPAPKNLVVSRVTEDSARLSWTAPDAAFDSFFIGYLEPQPPGEAINLQVPGSERSYDLTGLKPGTEYNVTIQGVKGGFPSFPLSAVFTT", "2.41e+06 RLU"),
]

Record SEQ ID NO 212 (designed binder, not shown: small tags and cut ends) MLPAPKNLVVSRVTEDSARLSWTAPDAAFDSFYIAYAEPRPDGEAIWLAVPGSERSYDLTGLKPGTEYSVLIHGVKGGLLSSPLHAQFTT . Reported RLU: 467000 RLU

Form field RLU, entry SEQ ID NO 213 (designed binder, not shown: small tags and cut ends) MLPAPKNLVVSRVTEDSARLSWTAPDAAFDSFYIAYAEPRPDGEAILLGVPGSERSYDLTGLKPGTEYSVLIHGVKGGLLSSPLFTT : 1.73e+06 RLU
